Where do the numbers come from? From patent US10899754B2.

Biological target: UniProt:P14902
Assay: IDO1 PBMC RapidFire MS assay (kynurenine detection by mass spectrometry)
Assay type: cell-based
Parameters: to induce the expression of indoleamine 2, 3-dioxygenase (IDO1); host or cells: human PBMC stimulated with IFN-gamma and LPS
Settings: human PBMC stimulated with IFN-γ and LPS, 2 days, pIC50, read-out: PBMC PXC50 (converted)
endpoint: IC50

>>> df
                                   compound  endpoint  measurement
0  CNC(=O)c1nnc(Nc2cc([C@H](C)CC(=O)O)ccc2N(CC(C)C)C2CCOCC2)s1 [example 257]      IC50      31.6 nM
1  CNC(=O)c1nc(Nc2cc([C@H](C)CC(=O)O)ccc2N(CC(C)C)[C@H]2CC[C@@H](OC)CC2)n[nH]1 (racemic) [example 246]      IC50      25.1 nM
2  CC(C)CN(c1ccc(-c2ccncc2C(=O)O)cc1Nc1nc(C(F)(F)F)ns1)C1CCOCC1 [example 267]      IC50      39.8 nM
3  CC(C)CN(c1ccc(C(C)CC(=O)O)cc1NC1=NC(=O)[C@@H](c2ccccc2)N1)C1CCCCC1 (stereo partly shown) [example 155]      IC50      1580 nM

---

Assay: Toxicokinetics in Beagle dogs, 7 day repeat oral administration
Format: in vivo
Settings: male, Beagle, dog, plasma, po, 20 mg/kg, 20 mg/kg PO BID, Day1, Male, Subject 1
endpoint: Cmax (ng/mL)

In [3]: df
Out[3]:
                         chemical_structure  measurement
0  CC(C)CN(c1ccc([C@H](C)CC(=O)O)cc1Nc1nnc(C2CC2)s1)C1CCOCC1         2400

---

Biological target: indoleamine 2, 3-dioxygenase (IDO1) (Homo sapiens)
Assay: IDO1 HeLa RapidFire MS assay (kynurenine detection by mass spectrometry)
Assay type: cell-based
Design: to induce the expression of indoleamine 2, 3-dioxygenase (IDO1)
Settings: HeLa cells, pIC50, read-out: IDO1_HELA_PXC50 (converted)
Each record here notes measured IC50.
endpoint: IC50 (nM)

>>> print(df.to_string())
                                    compound  value_units  qualifier_symbol  measurement
 0  CC(C)CN(CC(C)C)c1ccc(C(C)CC(=O)O)cc1Nc1nnc(C2CC2)o1.O=C(O)C(F)(F)F (stereo not shown) [example 126]           nM                 =          631
 1  CC(C)CN(CC(C)C)c1ccc(C2CC2C(=O)O)cc1Nc1nc(Cl)ns1 (stereo not shown) [example 177]           nM                 =          158
 2  CC(C)CN(c1ccc(-c2cccnc2C(=O)O)cc1Nc1nc2ccccc2o1)C1CCCCC1 [example 290]           nM                 =          126
 3  CC(C)CN(c1ccc([C@H](C)CC(=O)O)cc1NC(C)C)C1CCCCC1 [example 180]           nM                 =         3980
 4  CC(C)CN(CC(C)C)c1ccc(C(C)CC(=O)O)cc1-n1nnnc1N (stereo not shown) [example 167]           nM                 >        10000
 5  CC(C)CN(c1ccc(C(C)CC(=O)O)cc1NC1=N[C@@H](c2ccccc2)CS1)C1CCCCC1 (stereo partly shown) [example 149]           nM                 =          794
 6  CC(C)CN(CC(C)C)c1ccc(C(C)CC(=O)O)cc1NC1CCCCC1 (stereo not shown) [example 157]           nM                 =         1000
 7  CC(C)CN(c1ccc(C(C)CC(=O)O)cc1NC1=N[C@H](c2ccccc2)CS1)C1CCCCC1 (stereo partly shown) [example 148]           nM                 =          631
 8  CC(C)CN(c1ccc(C(C)CC(=O)O)cc1NC1=N[C@H](C)CO1)C1CCCCC1 (stereo partly shown) [example 151]           nM                 =         2000
 9  CC(C)CN(c1ccc(-c2ccccc2C(=O)O)cc1Nc1cccc(Cl)n1)C1CCCCC1 [example 266]           nM                 =          200
10  CC(C)CN(c1ccc(-c2cccnc2C(=O)O)cc1Nc1nc(Cl)ns1)C1CCOCC1 [example 270]           nM                 =         1580
11  COCCc1nnc(Nc2cc([C@H](C)CC(=O)O)ccc2N(CC(C)C)CC(C)C)[nH]1 [example 203]           nM                 =         63.1
12  CC(C)CN(c1ccc(-c2cccnc2C(=O)O)cc1Nc1nc(C(F)(F)F)ns1)C1CCCCC1 [Example 88]           nM                 =         5.01
13  CC(C)CN(c1ccc(C(C)CC(=O)O)cc1Nc1nc2n(n1)CCCC2)C1CCCCC1 (stereo not shown) [example 150]           nM                 =         3160
14  CC(C)CN(c1ccc([C@H](C)CC(=O)O)cc1Nc1cnc(Cl)cn1)[C@H]1CC[C@H](O)CC1 [Example 45]           nM                 =         3.98
15  CC(C)CN(c1ccc([C@H](C)CC(=O)O)cc1Nc1nnc(C2CC2)[nH]1)C1CCOCC1 [example 210]           nM                 =         50.1

---

Biological target: indoleamine 2, 3-dioxygenase (IDO1) (Homo sapiens, UniProt P14902)
Sequence (P14902 whole entry): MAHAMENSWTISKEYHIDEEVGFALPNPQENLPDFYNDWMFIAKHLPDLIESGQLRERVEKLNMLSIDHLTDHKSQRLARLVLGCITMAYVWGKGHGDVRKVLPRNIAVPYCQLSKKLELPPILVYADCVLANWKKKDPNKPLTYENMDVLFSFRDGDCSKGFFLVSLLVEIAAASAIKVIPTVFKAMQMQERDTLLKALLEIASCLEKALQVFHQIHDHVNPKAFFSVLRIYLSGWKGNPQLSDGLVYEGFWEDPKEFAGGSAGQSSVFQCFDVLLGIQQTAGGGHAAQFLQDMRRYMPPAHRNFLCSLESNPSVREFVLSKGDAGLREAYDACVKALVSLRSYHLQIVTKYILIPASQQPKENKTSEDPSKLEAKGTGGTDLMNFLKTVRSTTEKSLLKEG
Assay: IDO1 PBMC RapidFire MS assay (kynurenine detection by mass spectrometry)
Type: cell-based
Parameters: to induce the expression of indoleamine 2, 3-dioxygenase (IDO1); host or cells: human PBMC stimulated with IFN-gamma and LPS
Details: human PBMC stimulated with IFN-γ and LPS, 2 days, pIC50, read-out: PBMC PXC50 (converted)
endpoint: IC50 (nM)

>>> print(df.to_string())
                                   compound                               test_target  measurement
0  CC(C)CN(c1c(F)cc([C@H](C)CC(=O)O)cc1Nc1ccc(Cl)cn1)C1CCOCC1  indoleamine 2, 3-dioxygenase (IDO1) (Homo sapiens, UniProt P14902)        0.501
1  CC(C)CN(c1ccc([C@H](C)CC(=O)O)cc1Nc1ccc(Cl)nc1)C1CCCCC1  indoleamine 2, 3-dioxygenase (IDO1) (Homo sapiens, UniProt P14902)        0.794
2  CC(C)CN(c1ccc([C@H](C)CC(=O)O)cc1Nc1nc(C(F)(F)F)ns1)C1CCN(C(=O)OC(C)C)CC1  indoleamine 2, 3-dioxygenase (IDO1) (Homo sapiens, UniProt P14902)         1.26
3  CC(C)CN(c1ccc([C@H](C)CC(=O)O)cc1Nc1nc(Cl)ns1)C1CC2(CCC2)C1  indoleamine 2, 3-dioxygenase (IDO1) (Homo sapiens, UniProt P14902)         7.94
4  CO[C@H]1CC[C@H](N(CC(C)C)c2ccc([C@H](C)CC(=O)O)cc2Nc2n[nH]c(C3CC3)n2)CC1 (racemic)  indoleamine 2, 3-dioxygenase (IDO1) (Homo sapiens, UniProt P14902)         39.8
5  CC(C)CN(c1ccc(C(C)NC(N)=O)cc1Nc1nc(C(F)(F)F)ns1)C1CCOCC1 (stereo not shown)  indoleamine 2, 3-dioxygenase (IDO1) (Homo sapiens, UniProt P14902)           20
6  CC(C)CN(c1ccc([C@H](C)CC(=O)O)cc1Nc1ccc(C#N)nn1)C1CCOCC1  indoleamine 2, 3-dioxygenase (IDO1) (Homo sapiens, UniProt P14902)         2.51

---

Biological target: indoleamine 2, 3-dioxygenase (IDO1) (Homo sapiens, UniProt P14902)
Assay: IDO1 HeLa RapidFire MS assay (kynurenine detection by mass spectrometry)
Type: cell-based
Design: to induce the expression of indoleamine 2, 3-dioxygenase (IDO1)
Settings: HeLa cells, pIC50, read-out: IDO1_HELA_PXC50 (converted)
Method: IDO1 HeLa RapidFire MS Assay Compounds of the present invention were tested via high-throughput cellular assays utilizing detection of kynurenine via mass spectrometry and cytotoxicity as end-points. […] Cellular toxicity due to the effect of compound treatment was measured using CellTiter-Glo® reagent (CTG) (Promega Corporation, Madison, Wis.), which is based on luminescent detection of ATP, an indicator of metabolically active cells. […]
API: label(entry) gives y if the entry's IC50 is strictly smaller than 20 nM; on equality or larger values it gives n.

In [3]: df
Out[3]:
                                    compound  class_label
 0  COCc1nnc(Nc2cc(C(C)CC(=O)O)ccc2N(CC(C)C)CC(C)C)s1 (stereo not shown)            n
 1  CC(C)CN(CC(C)C)c1ccc(C(C)CC(=O)O)cc1Nc1noc(-c2ccccc2)n1.O=C(O)C(F)(F)F (stereo not shown)            n
 2  CC(C)CN(c1ccc(C(C)CC(=O)O)cc1NC1=N[C@@H](c2ccccc2)CO1)C1CCCCC1 (stereo partly shown)            n
 3  CC(C)CN(c1ccc([C@H](C)CC(=O)O)cc1Nc1cnc(C#N)nc1)C1CCOCC1            y
 4  COCC(=O)N1CCC(N(CC(C)C)c2ccc([C@H](C)CC(=O)O)cc2Nc2nc(C(F)(F)F)ns2)CC1            n
 5  CC(C)CN(CC(C)C)c1ccc(C(C)CC(=O)O)cc1Nc1ncc(-c2ccccc2)o1 (stereo not shown)            n
 6  CC(C)CN(c1ccc([C@H](C)Cc2nnn[nH]2)cc1Nc1nc(C(F)(F)F)ns1)C1CCCCC1            y
 7  CO[C@H]1CC[C@@H](N(CC(C)C)c2ccc([C@H](C)CC(=O)O)cc2Nc2n[nH]c(Cl)n2)CC1            y
 8  Cc1nc(C)c(Nc2cc(C(C)CC(=O)O)ccc2N(CC(C)C)CC(C)C)s1 (stereo not shown)            n
 9  CC(C)CN(c1ccc(C(C)(C)CC(=O)O)cc1Nc1nc(Cl)ns1)C1CCCCC1            y
10  CC(C)CN(c1ccc(C(C)OCC(=O)O)cc1Nc1nc2ccccc2o1)C1CCCCC1 (stereo not shown)            n
11  CC(C)CN(c1ccc(-c2ccccc2C(=O)O)cc1Nc1nc(C(F)(F)F)ns1)C1CCN(C(=O)OC(C)(C)C)CC1            y
12  CC(C)CN(c1ccc([C@H](C)CC(=O)O)cc1Nc1nc(C(F)(F)F)cs1)C1CCOCC1            y
13  CC(C)CN(c1ccc([C@H](C)CC(=O)O)cc1Nc1ccc(Cl)nn1)[C@H]1CC[C@H](O)CC1            y
14  CC(C)CN(CC(C)C)c1ccc(C(C)CC(=O)O)cc1Nc1nc(C2CC2)cs1 (stereo not shown)            n
